Type: in vivo, healthy female subjects
Details: female, human, plasma, po, t1/2 (terminal half-life), ethinylestradiol/levonorgestrel 0.03/0.15 mg with upadacitinib 30 mg QD, period 2, N = 20; harmonic mean (pseudo-standard deviation)
test-readout: half-life
Reply with the number and its unit after it.

q: Endpoint output: half-life of C#C[C@]1(O)CC[C@H]2[C@@H]3CCc4cc(O)ccc4[C@H]3CC[C@@]21C . Value?
a: 7.7 h

---

Type: in vivo, healthy female subjects
Conditions: female, human, plasma, po, t1/2 (terminal half-life), ethinylestradiol/levonorgestrel 0.03/0.15 mg alone, period 1 day 1, N = 22; harmonic mean (pseudo-standard deviation)
test-readout: half-life (h)
The reply should contain only the number, in h.

q: Could you share which half-life value was measured for C#C[C@]1(O)CC[C@H]2[C@@H]3CCc4cc(O)ccc4[C@H]3CC[C@@]21C [Ethinylestradiol] ?
a: 7
